System: Wild type
protocol_text: S. aureus survival, RN4220 and DeltatarO strains – OD600, teichoic acid synthesis inhibitors, primary screen (AID 463173)
experimental_conditions: S. aureus RN4220 wild type/DeltatarO growth, OD600, 18 h, stronger effect = lower value, screened at 18.75 µg/mL (by protocol)
The whole screen tested about 52,000 compounds, of which about 1,700 (3.3%) were called active. This is one part of a sample in which actives are shown more often than they occur.
Kindly apply the following: class 1 if survival is less than 60%, class 0 in every other case.

Worked examples follow.
COc1ccc(CNC(=O)c2cnn(-c3ccccc3)c2-n2cccc2)cc1OC ... class 0
Nc1ccc2nc(SCCOc3ccccc3)sc2c1 ... class 0

[ask] is_below(survival, 60%) for S=c1n(-c2ccccc2)cnn1CN1CCCCC1 ?
[reply] class 0

[ask] Now the molecule O=C(CSCc1cccc(F)c1)NCc1ccccc1
[reply] class 0

[ask] Now the molecule COc1cc2ncc3c(-c4ccccc4)nn(CC(=O)NC4CCCCC4)c3c2cc1OC
[reply] class 0

* * *

The reader will find reported survival values listed item by item below.
System: Wild type
protocol_text: S. aureus survival, RN4220 and DeltatarO strains – OD600, teichoic acid synthesis inhibitors, primary screen (AID 463173)
experimental_conditions: S. aureus RN4220 wild type/DeltatarO growth, OD600, 18 h, stronger effect = lower value, screened at 18.75 µg/mL (by protocol)
About 1,700 (3.3%) of roughly 52,000 compounds were called active. This is one part of a sample in which actives are shown more often than they occur.
The reply should contain only the number, in %.

// solved cases for survival follow
Fc1ccc(NCc2nc3ccccc3n2CCOc2ccccc2Cl)cc1 ... 95
COc1ccc(NCc2nc3ccccc3n2CCOc2ccccc2C)cc1 ... 4

Next, consider the following compound.
[ask] Dear colleague, I am looking for the recorded survival of the following compound: COCCNC(=O)Cn1cc(/C=C(\C#N)C(N)=O)c2ccccc21
[reply] 114

* * *

System: Wild type
protocol_text: S. aureus survival, RN4220 and DeltatarO strains – OD600, teichoic acid synthesis inhibitors, primary screen (AID 463173)
experimental_conditions: S. aureus RN4220 wild type/DeltatarO growth, OD600, 18 h, stronger effect = lower value, screened at 18.75 µg/mL (by protocol)
Among all 52,000 compounds or so, about 1,700 (3.3%) were called active. The entries come from a sample that favours actives as a whole.
Classification by survival follows these ranges: interval 1: < 50%; interval 2: ≥ 50% and < 80%; interval 3: ≥ 80%

Cc1ccc(C2Nc3ccccc3-n3c(-c4ccccc4)c4c(=O)n(C)c(=O)n(C)c4c32)o1 (stereo not given) ... interval 2
Cc1cc(-c2ccc(S(=O)(=O)N3CCN(c4ccc(Cl)cc4)CC3)s2)on1 ... interval 3
Cc1ccc(C2Nc3cc(C)c(C)cc3-n3c(-c4ccccc4)c4c(=O)n(C)c(=O)n(C)c4c32)o1 (stereo not given) ... interval 2
CCCCOc1ccc(C(=O)N(Cc2nc(-c3ccc(Cl)cc3)no2)C(C)C)cc1 ... interval 3
CC(=O)c1ccc(N2CCN(S(=O)(=O)c3ccc(-c4cc(C(F)(F)F)on4)s3)CC2)cc1 ... interval 2
Cc1ccc(NC(=O)N(Cc2c[nH]c3ccccc23)C2CCCCCC2)cc1C ... interval 2

[ask] Band for CCOc1cc(C(=O)NCc2nc(-c3cccc(C)c3)no2)cc(OCC)c1OCC ?
[reply] interval 3

[ask] Now the compound O=C(Nc1ccccc1)N(Cc1c[nH]c2ccccc12)C1CCCCCC1
[reply] interval 1

* * *

System: Wild type
protocol_text: S. aureus survival, RN4220 and DeltatarO strains – OD600, teichoic acid synthesis inhibitors, primary screen (AID 463173)
experimental_conditions: S. aureus RN4220 wild type/DeltatarO growth, OD600, 18 h, stronger effect = lower value, screened at 18.75 µg/mL (by protocol)
Among all 52,000 compounds or so, about 1,700 (3.3%) were called active. What follows is part of a selection rich in actives, with near analogues and random picks from the rest.
The reader will find reported survival values listed item by item below.
The reply should contain only the number, in %.

CCCC(=O)c1cc(F)c(N2CCOCC2)cc1C ... 121

[ask] Dear colleague, I am looking for the recorded survival of the following compound: N#C/C(=C\c1ccccc1)C(=O)Nc1sc2c(c1C(N)=O)CCC2
[reply] 75

[ask] Now the compound O=C(Nc1ccc(OCc2cc(=O)n3c4c(sc3n2)CCCC4)cc1)c1cccc(F)c1
[reply] 78

[ask] Now the compound COc1ccc(OC)c(S(=O)(=O)N2CC=C(c3c(C)n(CC(=O)N4CCCC4)c4ccccc34)CC2)c1
[reply] 83

[ask] Now the compound O=C(CSc1ncc(-c2ccccc2)[nH]1)Nc1cccc(Br)c1
[reply] 13

[ask] Now the compound CCOC(=O)c1cccc(NC(=O)N2CCC(CN3CCc4ccccc4C3)CC2)c1
[reply] 71

[ask] Now the compound Cc1cccc(N2CCN(C(=O)Cn3c(=O)c4cccn4c4ccc(F)cc43)CC2)c1C
[reply] 85

[ask] Now the compound CCOC(=O)c1ccc(NC(=O)CSc2nnc(CNC(=O)c3ccc(OC)cc3)n2CC)cc1
[reply] 134

[ask] Now the compound CSc1ccc(/C=C(\C#N)C(=O)NC2CCCCC2)cc1
[reply] 95

[ask] Now the compound CCOc1ccc(-c2c(C)nn3c(C)c(C(=O)NC(C)c4ccccc4)cnc23)cc1OCC (configuration not stated)
[reply] 75

[ask] Now the compound CCOC(=O)c1sc2sc(C(=O)OCC)c(CN(CC)CC)c2c1CN(CC)CC
[reply] 94

[ask] Now the compound CCCc1nn2c(=O)cc(COC(=O)c3cccc(NC(=O)COc4ccc(F)cc4)c3)nc2s1
[reply] 80

* * *

System: Wild type
protocol_text: S. aureus survival, RN4220 and DeltatarO strains – OD600, teichoic acid synthesis inhibitors, primary screen (AID 463173)
experimental_conditions: S. aureus RN4220 wild type/DeltatarO growth, OD600, 18 h, screened at 18.75 µg/mL (by protocol)
The campaign covered roughly 52,000 compounds. About 1,700 (3.3%) were called active. No stated cut-off is given here; in the data, active means survival mostly below about 52% (no sharp cut-off); inactive means mostly above about 56%. This excerpt belongs to a sample that is enriched for actives.
// classify into T (active), F (inactive)

Worked examples follow.
CN(C)C(=O)c1c(NC(=O)c2ccccc2F)sc2c1CCCC2 ... F
Cc1c(-c2nc(-c3ccc4c(c3)OCO4)no2)nnn1-c1ccc(C(C)C)cc1 ... F
CCC(=O)n1c2c(c3ccccc31)Nc1ccccc1N2 ... F

Next item in the queue.
[ask] Would you mind telling me which call this test gave Cc1ccc(NC(=O)Cn2c(=O)n(CCC(=O)N3CCc4ccccc4C3)c(=O)c3ccccc32)c(C)c1 ?
[reply] F

* * *

Test system: Wild type
protocol_text: S. aureus survival, RN4220 and DeltatarO strains – OD600, teichoic acid synthesis inhibitors, primary screen (AID 463173)
experimental_conditions: S. aureus RN4220 wild type/DeltatarO growth, OD600, 18 h, stronger effect = lower value, screened at 18.75 µg/mL (by protocol)
Hit rate of the full screen: of about 52,000 compounds, about 1,700 (3.3%) were called active. Only a selection was taken, and actives are over-represented in it overall.
Kindly apply the following: 1 (yes) if survival is less than 70%, 0 (no) in every other case.

Worked examples follow.
Cc1ccc(-c2cc3ncc(C(=O)c4cc([N+](=O)[O-])ccc4O)cn3n2)cc1 ... 1 (yes)
O=[N+]([O-])c1ccc(O)c(-c2ccnc3cc(-c4ccccc4)nn23)c1 ... 1 (yes)
Cc1ccc(NC(=O)CN2CCCN(Cc3cc(C)ccc3C)S2(=O)=O)c(Cl)c1 ... 1 (yes)

[ask] is_below(survival, 70%) for CC(=O)N1CCC(N(Cc2ccc(C)o2)C(=O)Nc2ccccc2F)CC1 ?
[reply] 0 (no)

[ask] Now the molecule CCc1cccc(C)c1NC(=O)CN1CCCN(Cc2ccc(C)cc2)S1(=O)=O
[reply] 1 (yes)

* * *

System: Wild type
protocol_text: S. aureus survival, RN4220 and DeltatarO strains – OD600, teichoic acid synthesis inhibitors, primary screen (AID 463173)
experimental_conditions: S. aureus RN4220 wild type/DeltatarO growth, OD600, 18 h, screened at 18.75 µg/mL (by protocol)
Screen size: about 52,000 compounds; about 1,700 (3.3%) were called active. No stated cut-off is given here; in the data, active means survival mostly below about 52% (no sharp cut-off); inactive means mostly above about 56%. The sample holds actives, similar compounds and a random draw of the others, so the mix is not that of the screen.
// classify into active, inactive

Worked examples follow.
Cc1ccc(C(=O)Nc2nnc(S(=O)(=O)N3c4ccccc4CC3C)s2)cc1 (stereo not given) ... inactive
Cc1cccc(-c2noc(CN(C(=O)COc3ccc(Br)cc3C)C(C)C)n2)c1 ... inactive
CCOc1ccc(C(=O)N(Cc2nc(-c3cccc(C)c3)no2)C(C)C)cc1 ... active
COc1ccc(S(=O)(=O)N(C)Cc2nc(-c3cccc(C)c3)no2)cc1 ... inactive
Cc1cccc(-c2noc(CN(C(=O)c3ccc(C)c(C)c3)C(C)C)n2)c1 ... active
Cc1cccc(-c2noc(CN(C(C)C)S(=O)(=O)c3ccc(Br)cc3)n2)c1 ... inactive
COc1ccc(OC(C)C(=O)NCc2nc(-c3cccc(C)c3)no2)cc1 (stereo not given) ... inactive
COc1cc(NC(=O)c2sc3nc4n(c(=O)c3c2C)CCCCC4)cc(OC)c1OC ... inactive

[ask] Would you mind telling me which call this test gave Cc1cccc(-c2noc(CN(C(=O)COc3ccc(C(C)C)cc3)C(C)C)n2)c1 ?
[reply] active

[ask] Now the compound COc1ccccc1CCNC(=O)c1cc2c(=O)n3cccc(C)c3nc2n1C
[reply] inactive

Each recorded value in this set is attributed to PubChem BioAssay AID463173.
